- ASSAY_TARGET: T1, mfNPR1-mFc (monkey)
- T1 construct: also called dimeric monkey NPR1
- T1 chain: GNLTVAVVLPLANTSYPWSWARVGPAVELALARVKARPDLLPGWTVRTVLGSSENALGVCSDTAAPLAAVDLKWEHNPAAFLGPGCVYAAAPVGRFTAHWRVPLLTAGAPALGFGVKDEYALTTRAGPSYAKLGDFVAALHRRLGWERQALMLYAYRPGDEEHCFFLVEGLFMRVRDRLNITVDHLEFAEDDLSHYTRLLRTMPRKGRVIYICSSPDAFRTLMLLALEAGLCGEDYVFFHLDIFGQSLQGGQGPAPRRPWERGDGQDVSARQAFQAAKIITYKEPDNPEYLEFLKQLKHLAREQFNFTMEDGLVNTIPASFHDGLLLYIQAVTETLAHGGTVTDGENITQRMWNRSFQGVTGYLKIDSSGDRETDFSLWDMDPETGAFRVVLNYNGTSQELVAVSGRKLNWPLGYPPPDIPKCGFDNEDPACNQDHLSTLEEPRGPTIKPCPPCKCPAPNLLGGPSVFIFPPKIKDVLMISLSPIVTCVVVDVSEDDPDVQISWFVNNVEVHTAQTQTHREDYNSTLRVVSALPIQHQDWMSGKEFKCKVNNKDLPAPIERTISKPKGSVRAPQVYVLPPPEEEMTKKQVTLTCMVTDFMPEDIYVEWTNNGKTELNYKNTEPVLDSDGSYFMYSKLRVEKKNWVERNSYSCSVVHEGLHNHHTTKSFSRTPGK
- ASSAY_PROTOCOL: SPR, mAb captured, 25C
PARAMETER: kon (M⁻¹ s⁻¹)
Number in M⁻¹ s⁻¹, nothing else.

BINDER	ASSAY_RESULT
mAb25479 (antibody, human IgG4, V domains shown) VH: QVQLVQSGAEVKKPGASVKVSCKASGYTFTGYYIHWVRQAPGQGLEWMGWINPNSIGTNYAQKFQGRVTLTRDTSISTAYMELSSLRSDDTAVYYCARGGSSSYYYYYYGMDVWGQGTTVTVSS VL: DIQMTQSPSSLSASVGDRVTITCRASQSIDNYLNWYQQKPGKAPKLLIYVASSLQSGVPSRFSGSGSGTDFTLTISSLQPEDFATYYCQQSYSTPLTFGGGTKVEIK	31200

Ask: Using the record for mAb22035 (antibody, human IgG4, V domains shown) VH: EVQLVESGGGLVQPGRSLRLSCAASGFTFDDYAMHWVRQAPGKGLEWVSGISWNSGTIGYADSVKGRFTMSRDNAKNSLYLQMNSLRPEDTALYYCAKDMGVSLALWGAFDIWGQGTMVTVSS VL: DIQMTQSPSSLSASVGDKVTITCRASQNIRTYLNWYQQKPGKAPKVLISTASSLQSGVPSRFSGSGSGTDFTLTISSLQPEDFAVFYCQQSFGIPRTFGQGTKVEIK , report its kon.
Reply: 244000
